method.description: Tmax in rat at […], iv and 10 mg/kg, po
Assay type: ADME, organism-based
experimental.setup: in vivo
property.label: Tmax
Remember to follow the number with its unit.

Per the record, Cl.FC(F)(F)c1ccc(Nc2ncnc3cc(-c4ncccc4C(F)(F)F)ccc23)cn1 has Tmax of 4.7 h

* * *

method.description: Metabolic stability in rat liver microsomes assessed as compound remaining at 1 uM after 10 mins by LCMS analysis
Type: ADME, Microsome
experimental.setup: read-out: Activity
property.label: remaining at 10 min, 1 µM

Solved cases below.
Per the record, FC(F)(F)c1ccc(Nc2ccnc3nc(-c4ncccc4C(F)(F)F)ccc23)nc1 has remaining at 10 min, 1 µM of 100%

Per the record, FC(F)(F)c1ccc(Nc2ncnc3cc(-c4ncccc4C(F)(F)F)ccc23)nc1 has remaining at 10 min, 1 µM of 91%

Per the record, Cl.FC(F)(F)c1ccc(Nc2ncnc3cc(-c4ncccc4C(F)(F)F)ccc23)cn1 has remaining at 10 min, 1 µM of 100%

Moving on to the next compound.
Per the record, FC(F)(F)c1ccc(Nc2ncnc3cc(-c4ncccc4C(F)(F)F)ccc23)cc1 has remaining at 10 min, 1 µM of 93%

* * *

method.description: Clearance in rat at 1 mg/kg, iv and 1 mg/kg, po
Format: ADME, organism-based
experimental.setup: in vivo
property.label: clearance (mL/min/kg)
Your answer is read as mL/min/kg, so omit the unit and give the number.

Per the record, FC(F)(F)c1ccc(Nc2ccnc3nc(-c4ncccc4C(F)(F)F)ccc23)nc1 has clearance of 34

* * *

Test system: MDR1
method.description: Apparent permeability across pig LLC-PK1 cells expressing MDR1
Type: ADME, cell-based, Sus scrofa
property.label: Papp (×10⁻⁶ cm/s)
Your answer is read as ×10⁻⁶ cm/s, so omit the unit and give the number.

Per the record, FC(F)(F)c1ccc(Nc2ncnc3cc(-c4ncccc4C(F)(F)F)ccc23)cc1 [NGD-8243] has Papp of 11

More entries:
Per the record, FC(F)(F)c1ccc(Nc2ccnc3nc(-c4ncccc4C(F)(F)F)ccc23)nc1 has Papp of 29.8

* * *

method.description: Clearance in rat at […], iv and 10 mg/kg, po
Assay type: ADME, organism-based
experimental.setup: in vivo
property.label: clearance (mL/min/kg)
Your answer is read as mL/min/kg, so omit the unit and give the number.

Per the record, Cl.FC(F)(F)c1ccc(Nc2ncnc3cc(-c4ncccc4C(F)(F)F)ccc23)cn1 has clearance of 22

* * *

test.target: Transient receptor potential cation channel subfamily V member 1 (Homo sapiens, UniProt Q8NER1)
Sequence (Q8NER1 whole entry): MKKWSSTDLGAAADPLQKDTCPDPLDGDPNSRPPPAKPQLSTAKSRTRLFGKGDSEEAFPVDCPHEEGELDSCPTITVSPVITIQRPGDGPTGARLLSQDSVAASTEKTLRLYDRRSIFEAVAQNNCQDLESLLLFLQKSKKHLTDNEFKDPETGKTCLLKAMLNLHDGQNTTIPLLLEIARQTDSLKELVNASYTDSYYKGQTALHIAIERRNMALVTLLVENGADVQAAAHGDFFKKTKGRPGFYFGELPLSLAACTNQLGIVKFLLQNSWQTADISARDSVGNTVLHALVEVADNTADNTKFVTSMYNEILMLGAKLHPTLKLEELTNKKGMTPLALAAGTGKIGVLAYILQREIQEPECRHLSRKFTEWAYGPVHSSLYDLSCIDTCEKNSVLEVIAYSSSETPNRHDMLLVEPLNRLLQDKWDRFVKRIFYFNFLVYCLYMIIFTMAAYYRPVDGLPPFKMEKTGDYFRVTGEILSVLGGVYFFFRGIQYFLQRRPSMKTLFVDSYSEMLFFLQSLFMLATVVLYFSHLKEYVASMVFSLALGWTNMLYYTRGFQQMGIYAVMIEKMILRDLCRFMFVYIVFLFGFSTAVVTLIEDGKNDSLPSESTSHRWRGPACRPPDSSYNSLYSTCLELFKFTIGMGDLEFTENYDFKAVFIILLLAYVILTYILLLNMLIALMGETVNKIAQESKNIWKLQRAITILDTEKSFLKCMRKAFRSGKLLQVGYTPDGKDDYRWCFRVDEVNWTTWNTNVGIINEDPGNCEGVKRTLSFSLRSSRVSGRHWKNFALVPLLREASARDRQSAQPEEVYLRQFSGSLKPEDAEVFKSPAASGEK
method.description: Antagonist activity at human recombinant TRPV1 expressed in HEK293 cells assessed as inhibition of capsaicin-induced calcium mobilization by FLIPR assay
Assign labels as follows, please: 1 (yes) for IC50 below 2 nM; 0 (no) for IC50 equal to or exceeding 2 nM.

Examples with answers:
Asked: Is 2 nM strictly greater than the compound's reported IC50? compound: FC(F)(F)c1ccc(Nc2ncnc3cc(-c4ncccc4C(F)(F)F)cnc23)cc1
Given back: 1 (yes)

Asked: Is 2 nM strictly greater than the compound's reported IC50? compound: FC(F)(F)c1ccc(Nc2ccnc3nc(-c4ncccc4C(F)(F)F)ccc23)nc1
Given back: 0 (no)

Asked: Is 2 nM strictly greater than the compound's reported IC50? compound: FC(F)(F)c1ccc(Nc2cnnc3cc(-c4ncccc4C(F)(F)F)ccc23)nc1
Given back: 0 (no)

More entries:
Asked: Is 2 nM strictly greater than the compound's reported IC50? compound: FC(F)(F)c1ccc(Nc2nccc3nc(-c4ncccc4C(F)(F)F)cnc23)nc1
Given back: 0 (no)

Asked: Is 2 nM strictly greater than the compound's reported IC50? compound: FC(F)(F)c1ccc(Nc2ccnc3cc(-c4ncccc4C(F)(F)F)cnc23)nc1
Given back: 0 (no)

Asked: Is 2 nM strictly greater than the compound's reported IC50? compound: FC(F)(F)c1ccc(Nc2ncnc3nc(-c4ncccc4C(F)(F)F)ncc23)cc1
Given back: 0 (no)
